STUDY_TARGET: HO-1 (rat spleen) (Rattus norvegicus, UniProt P06762)
Construct: Spleen microsomes were used as a source of HO-1; from tissue; host or cells: spleen microsomal fraction of adult male Sprague-Dawley rats
Sequence (P06762 whole entry): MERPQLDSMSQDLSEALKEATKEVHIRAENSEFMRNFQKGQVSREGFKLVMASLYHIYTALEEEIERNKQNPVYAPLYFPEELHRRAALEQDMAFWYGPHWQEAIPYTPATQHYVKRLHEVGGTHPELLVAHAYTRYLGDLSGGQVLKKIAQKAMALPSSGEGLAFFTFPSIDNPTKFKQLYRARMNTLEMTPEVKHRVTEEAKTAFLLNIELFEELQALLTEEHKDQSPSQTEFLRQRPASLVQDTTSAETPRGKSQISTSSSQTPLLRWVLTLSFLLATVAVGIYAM
ASSAY_PROTOCOL: HO enzymatic activity, rat spleen microsomal fraction (CO formation from methemalbumin)
Type: biochemical
CONDITION_INFO: CO formation from methemalbumin, mean ± SD of replicate experiments, read-out: IC50 HO-1 (rat spleen/μM)
Counter-ions that a name gives are not always drawn.
Examples of molecules with documented IC50 follow.
I only need the number, in µM, no unit after it.

# MOLECULE, READOUT_KIND, MEAS_VALUE
measured = [
    ("O=C(Cn1ccnc1)NCc1ccccc1 [QC-63, hydrochloride]", "IC50", 12),
]

Now for a further molecule.
Would you kindly share the measured IC50 for c1ccc(CCC2(Cn3cncn3)OCCO2)cc1 [QC-104, hydrochloride] ? 14
